All values here come from PubChem BioAssay AID1159580.

I'd be grateful if you could share measured normalized growth for these entries.
Experiment: chemical genetic growth profiling, strain panel (AID 1159580);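 note: tested at 20 µM; growth read once vehicle control cultures reached saturation at 30 °C; 1 = growth at the plate median or of vehicle wells; lower values mean less growth of the strain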
Settings: S. cerevisiae deletion strains, growth OD, locus YOR231W, strain MKK1, stronger effect = lower value
In all, about 5,500 compounds went through this assay and about 2,000 (36%) were called active. Another 18% or so got no clear call; they are omitted. The list shows a part of the results.
One number for each entry.

Recorded normalized growth, per entry:
compound | readoutType | measurement
CN(C)[C@@H]1C(=O)C(C(N)=O)=C(O)[C@@]2(O)C(=O)C3=C(O)c4c(O)cccc4[C@@](C)(O)[C@H]3[C@H](O)[C@@H]12 | normalized growth | 0.99
CC(C)NCC(O)COc1ccc(COCCOC(C)C)cc1 (stereo not drawn) | normalized growth | 1.03
NCC(N)C(=O)c1ccccc1 (stereo not drawn) | normalized growth | 0.962
CC(=O)Oc1ccc(C(c2ccc(OC(C)=O)cc2)c2ccccn2)cc1 | normalized growth | 0.974
CN(C)C(=O)Oc1cccc([N+](C)(C)C)c1 | normalized growth | 1.02
NCC(=O)c1ccccc1 | normalized growth | 1.08

For every item below, please supply its normalized growth.
1. CC(=O)OCC(=O)[C@@]1(O)[C@H](C)CC2C3CCC4=CC(=O)C=C[C@]4(C)[C@@]3(F)[C@@H](O)C[C@@]21C (stereo partly drawn)
2. NC(=O)NC(=O)Cc1ccccc1
3. CCC(C)[C@H]1O[C@]2(CC[C@@H]1C)C[C@@H]1C[C@@H](C/C=C(\C)[C@@H](OC3C[C@H](OC)C(O[C@H]4C[C@H](OC)[C@@H](O)[C@H](C)O4)[C@H](C)O3)[C@@H](C)/C=C/C=C3\CO[C@@H]4[C@H](O)C(C)=C[C@@H](C(=O)O1)[C@]34O)O2 (stereo partly drawn)
4. Cc1nn(-c2cccc(Cl)c2)c2oc(=O)cc(C(F)(F)F)c12
5. O=C(OCc1ccccc1)c1ccccc1
6. O=C(Nc1ccc(F)cc1F)c1cc(Cl)c(-n2cccc2)c(Cl)c1
7. CCC(C)[C@H]1O[C@]2(C=C[C@@H]1C)C[C@@H]1C[C@@H](C/C=C(\C)[C@@H](OC3C[C@H](OC)C(O[C@H]4C[C@H](OC)[C@@H](O)[C@H](C)O4)[C@H](C)O3)[C@@H](C)/C=C/C=C3\CO[C@@H]4[C@H](O)C(C)=C[C@@H](C(=O)O1)[C@]34O)O2 (stereo partly drawn)

Given back:
1: 1.03; 2: 0.988; 3: 1; 4: 0.501; 5: 0.86; 6: 0.88; 7: 0.945

Provide each entry's normalized growth from the list below.
1. C[C@H]1c2cccc(O)c2C(O)=C2C(=O)[C@]3(O)C(O)=C(C(N)=O)C(=O)[C@@H](N(C)C)[C@@H]3[C@@H](O)[C@@H]21
2. CCCOc1ccc2nc(NC(=O)OC)[nH]c2c1
3. O=C(Nc1cccc(Cl)c1)O/N=C1\CCCc2occc21
4. CN(C)c1ccc(O)c2c1C[C@H]1C[C@H]3[C@H](N(C)C)C(=O)C(C(N)=O)=C(O)[C@@]3(O)C(=O)C1=C2O
5. NC(COCc1ccccc1)C(=O)O (stereo not drawn)

Given back:
1: 1.06; 2: 1.07; 3: 0.672; 4: 1.01; 5: 1.01
